Where these numbers come from: ChEMBL document CHEMBL1124258

- Species: Rattus norvegicus
- assay: Minimum Effective Dose (MED) was measured using Food-Conflict test in rats
- Type: functional
- condition_description: read-out: MED
recorded_endpoint: minimal effective dose (mg/kg)
Numbers only; they are read as mg/kg.

Quick one: minimal effective dose for C=CCc1c(SC)nc2nc(C(=O)c3ccccc3)cn2c1C ?
5

Same again, this time with CCCc1cc(SC)nc2nc(C(=O)c3ccccc3)cn12
10

Now the molecule CCc1c(OC)nc2nc(C(=O)c3ccccc3)cn2c1C
2

// same read-out, input: COc1nc2nc(C(=O)c3ccccc3)cn2c2c1CCCCC2
10

Now consider COc1cc2nc(C(=O)c3ccccc3)cn2c2ccccc12 .
5

What do we get for CCCc1ccc2c(c1)c(OC)cc1nc(C(=O)c3ccccc3)cn12 ?
2

What do you get for COc1cc2nc(C(=O)c3ccccc3)cn2c2ccc(C)cc12 ?
5

What do we get for COc1cc(C)n2cc(C(=O)c3ccccc3)nc2n1 ?
5

Please give the result for COc1nc2nc(C(=O)c3ccccc3)cn2c(C)c1CC1CC1 too.
10

Next: CSc1nc2nc(C(=O)c3ccccc3)cn2c2c1CCCC2
10

Also, CCC(=O)c1cn2c(cc(OC)c3cc(CC)ccc32)n1 please.
10

# iterate: CCCCc1c(OC)nc2nc(C(=O)c3ccccc3)cn2c1CC
10

What do you get for CCc1cc(OC)nc2nc(C(=O)c3ccccc3)cn12 ?
2

Similarly, COc1nc2nc(C(=O)c3ccccc3)cn2c2c1CCC2 ?
20

Here is the next molecule: CCc1ccc2c(c1)c(OC)c(C)c1nc(C(=O)c3ccccc3)cn12
2

What would you report for CSc1nc2nc(C(=O)c3ccccc3)cn2c2c1CSCC2 ?
50

Repeat for the following molecule: CCOc1nc2nc(C(=O)c3ccccc3)cn2c2c1CCC2
50

Now consider COc1cc2nc(C(=O)c3ccccc3)cn2c2cc(C)c(C)cc12 .
5

What about this molecule? CCc1ccc2c(c1)c(OC)cc1nc(C(=O)c3ccccc3)cn12
5

Then this molecule: CCCc1c(OC)nc2nc(C(=O)c3ccccc3)cn2c1C
5
